The measured values listed here are drawn from patent US9505710B2.

molecular target: BoNT/A LC1-429 (Clostridium botulinum, UniProt P0DPI1); experiment: biochemical; details: BoNT/A Ki (nM)
Sequence (P0DPI1 1-429, added parts left off): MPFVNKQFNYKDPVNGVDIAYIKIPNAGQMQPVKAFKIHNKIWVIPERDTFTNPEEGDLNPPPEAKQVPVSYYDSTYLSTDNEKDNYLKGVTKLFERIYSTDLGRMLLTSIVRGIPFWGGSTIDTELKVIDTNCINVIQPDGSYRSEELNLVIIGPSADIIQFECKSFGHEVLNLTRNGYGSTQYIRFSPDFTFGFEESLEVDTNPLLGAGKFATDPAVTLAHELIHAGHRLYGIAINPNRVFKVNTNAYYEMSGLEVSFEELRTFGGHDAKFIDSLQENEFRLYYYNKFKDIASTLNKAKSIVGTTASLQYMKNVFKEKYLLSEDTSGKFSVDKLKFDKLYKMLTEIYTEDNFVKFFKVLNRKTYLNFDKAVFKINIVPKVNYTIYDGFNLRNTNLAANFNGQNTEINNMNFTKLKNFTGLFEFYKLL
Structures can show the parent of a compound that is named as a salt.
Experimental Endpoint: Ki (nM)

>>> observed("CCO[C@H](CC(=O)NO)[C@H](Cc1ccc(Cl)cc1)c1ccc(C(=O)N2CCN(C(=O)OC(C)(C)C)CC2)cc1")
22
>>> observed("CCCCO[C@H](CC(=O)NO)[C@H](Cc1ccc(Cl)cc1)c1ccc(F)cc1F")
48.5
>>> observed("CO[C@H](CC(=O)NO)[C@H](Cc1ccc(Cl)cc1)c1ccc(C(=O)N(C)C)cc1")
26.2
>>> observed("CCO[C@H](CC(=O)NO)[C@H](Cc1ccc(Cl)cc1)c1ccc(COCOC)cc1")
21.2
>>> observed("CO[C@H](CC(=O)NO)[C@H](Cc1ccc(Cl)cc1)c1ccc(Cl)c(C(=O)N2CCCCC2)c1")
13.1
>>> observed("CCO[C@H](CC(=O)NO)[C@H](Cc1ccc(Cl)cc1)c1ccc(CO)cc1")
2.7
>>> observed("O=C(C[C@@H](OCCO)[C@H](Cc1ccc(Cl)cc1)c1ccc(F)cc1F)NO")
8.75
>>> observed("CCO[C@H](CC(=O)NO)[C@H](Cc1ccc(Cl)cc1)c1ccc(-c2cccn2C(=O)OC(C)(C)C)cc1")
8.8
>>> observed("CCO[C@H](CC(=O)NO)[C@H](Cc1ccc(Cl)cc1)c1ccc(C(=O)N(CCO)CCO)cc1")
16.7
>>> observed("CO[C@H](CC(=O)NO)[C@H](Cc1ccc(Cl)cc1)c1ccc(F)cc1F [Example 6-20, potassium salt]")
8.3
>>> observed("CO[C@H](CC(=O)NO)[C@H](Cc1ccc(Cl)cc1C)c1ccc(Br)cc1F")
1.94
>>> observed("CCO[C@H](CC(=O)NO)[C@H](Cc1ccc(Cl)cc1)c1ccc(N(C)CCO)cc1")
8.5
>>> observed("CCO[C@H](CC(=O)NO)[C@H](Cc1ccc(Cl)cc1)c1ccc(C2(C)CO2)cc1 (some centres unmarked)")
9.6
>>> observed("CCCO[C@H](CC(=O)NO)[C@H](Cc1ccc(Cl)cc1)c1ccc(F)cc1F")
38.5
>>> observed("CCO[C@H](CC(=O)NO)[C@H](Cc1ccc(Cl)cc1C)c1ccc(F)cc1F")
10
>>> observed("CCO[C@H](CC(=O)NO)[C@H](Cc1ccc(Cl)cc1)c1ccc(CN2CCN(C(=O)OC(C)(C)C)CC2)cc1")
8.5
>>> observed("CCO[C@H](CC(=O)NO)[C@H](Cc1ccc(Cl)cc1)c1ccc(Cl)c(N2CCOCC2)c1")
5.8
>>> observed("CO[C@H](CC(=O)NO)[C@H](Cc1ccc(F)c(C)c1)c1ccc(Br)cc1")
3.4
>>> observed("CCO[C@H](CC(=O)NO)[C@H](Cc1ccc(Cl)cc1)c1ccc(C(=O)N2CCNCC2)cc1")
9.2
>>> observed("CCO[C@H](CC(=O)NO)[C@H](Cc1ccc(Cl)cc1)c1ccc(-c2ccncc2)cc1")
4.5
>>> observed("CCO[C@H](CC(=O)NO)[C@H](Cc1ccc(Cl)cc1)c1ccc(-c2cnc(N(C)C)nc2)cc1")
5.3
>>> observed("CO[C@H](CC(=O)NO)[C@H](Cc1ccc(Cl)cc1)c1ccc(Br)cc1")
1.75
>>> observed("O=C(C[C@@H](OCCCO)[C@H](Cc1ccc(Cl)cc1)c1ccc(F)cc1F)NO")
1.45
